All values here come from the supplement of paper PMC12338614.

B1: library; numbered along this chain (parent)
chain: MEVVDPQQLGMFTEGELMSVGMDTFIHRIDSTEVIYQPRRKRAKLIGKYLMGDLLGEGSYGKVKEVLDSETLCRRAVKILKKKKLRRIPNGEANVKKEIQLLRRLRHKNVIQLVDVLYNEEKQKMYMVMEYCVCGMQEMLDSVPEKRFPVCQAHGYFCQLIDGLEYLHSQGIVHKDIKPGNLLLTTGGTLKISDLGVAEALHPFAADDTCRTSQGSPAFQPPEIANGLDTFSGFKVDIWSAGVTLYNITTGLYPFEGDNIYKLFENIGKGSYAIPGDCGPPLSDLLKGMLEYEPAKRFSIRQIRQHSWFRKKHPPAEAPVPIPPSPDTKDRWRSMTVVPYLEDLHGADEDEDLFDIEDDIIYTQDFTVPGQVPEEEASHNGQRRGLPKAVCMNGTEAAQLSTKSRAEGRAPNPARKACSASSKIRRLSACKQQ

# Variants of: B1
# Measurement protocol: STK11 functional score (HeLa growth suppression), rescaled enrichment; synonymous median = 1, nonsense median = 0 (normalised score)
# Assay conditions: with HeLa; variant type: missense
Each entry below lists one item and its recorded STK11 functional score value.
Reported metric: STK11 functional score

| Variant | Measurement |
| --- | --- |
| Y272L | 0.641 |
| I356V | 1.46 |
| V128L | 0.945 |
| E98S | 1.49 |
| K97T | 1.32 |
| E317W | 1.62 |
| R405G | 1.48 |
| K82I | 1.3 |
| A389W | 1.04 |
| G370S | 1.52 |
| S31T | 1.5 |
| E342W | 1.19 |
| Q305E | 1.02 |
| M18R | 0.834 |
| K78N | 0.219 |
| D352P | 1.6 |
| T402G | 1.13 |
| F234D | 1.18 |
| S193M | 0.111 |
| F231H | 0.765 |
| E375L | 1.04 |
| T209C | 1.12 |
